- System: Primary mouse hippocampal neurons
- TEST_PROTOCOL: Excitotoxic (glutamate/NMDA-induced) cell death in primary neuronal cultures, protection index
- Type: cell-based
- MEASUREMENT_CONTEXT: third subset; A++++ or above correlates with IC50; A++ and A+++ as defined in the source
Where a name gives a salt, the structure may show the parent alone.
OBSERVED_PROPERTY: Biological Activity Rating

NCCN(Cc1cccc(Br)c1F)C1CC1 [Compound 219B] : A++
CC(c1c(F)cccc1Cl)N(CCN)C1CC1 (stereo not shown) : A+++
CC(c1cccc(F)c1Cl)N(CCN)C1CC1 (stereo not shown) : A+++
NCCN(C1CC1)C(c1cccc(Cl)c1F)C(F)F (stereo not shown) [Compound 275, hydrochloride] : A+++
CC(c1cccc(Br)c1F)N(CCN)C1CCC1 (stereo not shown) [Compound 227B] : A+++

--- query ---
Prompt: Quickly give me recorded Biological Activity Rating for CC(c1cc(Cl)ccc1F)N(CCN)C1CC1 (stereo not shown)
Completion: A+++
